Target: activated ERK2 (Homo sapiens (Human))
Assay: Activated ERK2 (20 pM) Kinase Assay (AlphaScreen, ERKtide phosphorylation)
Format: biochemical
Details: 0.02 nM ERK2, 400 nM ERKtide peptide, 35 μM ATP, 30 min preincubation
pIC50: −log10 of the molar value.

[
  {
    "molecule": "Cn1nncc1-c1cnc(N)c(-c2ccc(C(=O)N[C@H](CO)c3cccc(Br)c3)c(F)c2)c1",
    "assay-target": "activated ERK2 (Homo sapiens (Human))",
    "pIC50": 10.31
  },
  {
    "molecule": "C[C@@H](NC(=O)c1ccc(-c2nc(C3=CCCCC3)cnc2N)cc1F)c1cc(F)cc(S(C)(=O)=O)c1",
    "assay-target": "activated ERK2 (Homo sapiens (Human))",
    "pIC50": 9.23
  },
  {
    "molecule": "Cc1c(-c2cnc(N)c(-c3ccc(C(=O)N[C@H](CO)c4cc(F)cc(C(F)F)c4)c(F)c3)c2)cnn1C(F)F",
    "assay-target": "activated ERK2 (Homo sapiens (Human))",
    "pIC50": 10.32
  },
  {
    "molecule": "Cn1cc(-c2cnc(N)c(-c3ccc(C(=O)N[C@H](CO)c4cc(F)cc(Cl)c4)c(F)c3)c2)cn1",
    "assay-target": "activated ERK2 (Homo sapiens (Human))",
    "pIC50": 10.09
  },
  {
    "molecule": "CSc1cccc([C@@H](CO)NC(=O)c2ccc(-c3nc(C4CCOCC4)cnc3N)cc2F)c1",
    "assay-target": "activated ERK2 (Homo sapiens (Human))",
    "pIC50": 11.00
  },
  {
    "molecule": "NC[C@@H](NC(=O)c1ccc(-c2nc([C@H]3CC[C@H](O)CC3)cnc2N)cc1F)c1cccc(I)c1",
    "assay-target": "activated ERK2 (Homo sapiens (Human))",
    "pIC50": 10.96
  },
  {
    "molecule": "Nc1ncc([C@H]2CC[C@H](O)[C@@H](F)C2)nc1-c1ccc(C(=O)N[C@H](CO)c2cc(F)cc(Br)c2)c(F)c1",
    "assay-target": "activated ERK2 (Homo sapiens (Human))",
    "pIC50": 10.29
  },
  {
    "molecule": "CCNC[C@@H](NC(=O)c1ccc(-c2nc(C3CCOCC3)cnc2N)cc1F)c1cc(F)cc(Br)c1",
    "assay-target": "activated ERK2 (Homo sapiens (Human))",
    "pIC50": 10.52
  },
  {
    "molecule": "CC(=O)NC[C@@H](NC(=O)c1ccc(-c2nc(C3CCOCC3)cnc2N)cc1F)c1cc(F)cc(Br)c1",
    "assay-target": "activated ERK2 (Homo sapiens (Human))",
    "pIC50": 10.70
  },
  {
    "molecule": "Nc1ncc([C@@H]2CC[C@@H](O)[C@H](O)C2)nc1-c1ccc(C(=O)N[C@H](CO)c2cc(F)cc(Br)c2)c(F)c1",
    "assay-target": "activated ERK2 (Homo sapiens (Human))",
    "pIC50": 10.73
  },
  {
    "molecule": "NC[C@@H](NC(=O)c1ccc(-c2nc(C3CCCC(O)C3)cnc2N)cc1F)c1cccc(Cl)c1 (single isomer, unassigned) [Example 370]",
    "assay-target": "activated ERK2 (Homo sapiens (Human))",
    "pIC50": 9.86
  },
  {
    "molecule": "Nc1ncc([C@H]2CC[C@@H](O)CC2)nc1-c1ccc(C(=O)N[C@H](CO)c2cccc(I)c2)c(F)c1",
    "assay-target": "activated ERK2 (Homo sapiens (Human))",
    "pIC50": 9.71
  },
  {
    "molecule": "Nc1ncc(C2=CCOCC2)nc1-c1ccc(C(=O)NCc2ccccc2)c(F)c1",
    "assay-target": "activated ERK2 (Homo sapiens (Human))",
    "pIC50": 8.19
  },
  {
    "molecule": "CNC[C@@H](NC(=O)c1ccc(-c2nc([C@H]3CC[C@H](OC)CC3)cnc2N)cc1F)c1cccc(Cl)c1",
    "assay-target": "activated ERK2 (Homo sapiens (Human))",
    "pIC50": 10.15
  }
]

---

Attribute: IC50
Molecular target: activated ERK2 (Homo sapiens (Human))
Experiment: Activated ERK2 (20 pM) Kinase Assay (AlphaScreen, ERKtide phosphorylation)
Format: biochemical
Settings: 0.02 nM ERK2, 400 nM ERKtide peptide, 35 μM ATP, 30 min preincubation
metric: IC50 (nM)

[
  {
    "molecule": "Nc1ncc(C2CCOCC2)cc1-c1ccc(C(=O)NCc2ccnnc2)c(F)c1",
    "metric": "IC50",
    "recorded-value": 381
  },
  {
    "molecule": "Nc1ncc(C2CCOCC2)nc1-c1ccc(C(=O)N[C@H](CO)c2cc(F)cc(CCl)c2)c(F)c1",
    "metric": "IC50",
    "recorded-value": 0.0242
  },
  {
    "molecule": "CN1CC[C@@H](c2cnc(N)c(-c3ccc(C(=O)N[C@H](CO)c4cccc(Cl)c4)c(F)c3)c2)CC1=O",
    "metric": "IC50",
    "recorded-value": 1.87
  },
  {
    "molecule": "Nc1ncc([C@@H]2CC[C@@H](O)C(F)(F)C2)nc1-c1ccc(C(=O)N[C@H](CO)c2cc(F)cc(Br)c2)c(F)c1",
    "metric": "IC50",
    "recorded-value": 0.0261
  },
  {
    "molecule": "COCC(=O)N[C@H]1CC[C@H](c2cnc(N)c(-c3ccc(C(=O)N[C@H](CO)c4cccc(Cl)c4)c(F)c3)n2)CC1",
    "metric": "IC50",
    "recorded-value": 0.343
  },
  {
    "molecule": "CNC[C@@H](NC(=O)c1ccc(-c2nc([C@H]3CC[C@H](O)CC3)cnc2N)cc1F)c1cccc(Cl)c1",
    "metric": "IC50",
    "recorded-value": 0.0463
  },
  {
    "molecule": "Nc1ncc([C@H]2CC[C@@H](O)[C@@H](O)C2)nc1-c1ccc(C(=O)N[C@H](CO)c2cc(F)cc(I)c2)c(F)c1",
    "metric": "IC50",
    "recorded-value": 0.137
  },
  {
    "molecule": "CNC[C@@H](NC(=O)c1ccc(-c2nc([C@@H]3CC[C@@H](O)[C@H](F)C3)cnc2N)cc1F)c1cc(F)cc(I)c1",
    "metric": "IC50",
    "recorded-value": 0.0205
  },
  {
    "molecule": "C[C@@H](NC(=O)c1ccc(-c2cc(C3CCOCC3)cnc2N)cc1)c1ccccc1",
    "metric": "IC50",
    "recorded-value": 10
  },
  {
    "molecule": "Nc1ncc(C2CCOCC2)cc1-c1ccc(C(=O)NCc2ccccc2Cl)cc1",
    "metric": "IC50",
    "recorded-value": 209
  },
  {
    "molecule": "Nc1ncc([C@@H]2CC[C@@H](O)[C@@H](F)C2)nc1-c1ccc(C(=O)N[C@H](CO)c2cc(F)cc(Br)c2)c(F)c1",
    "metric": "IC50",
    "recorded-value": 0.0363
  },
  {
    "molecule": "Nc1ncc(C(=O)N2CCC(O)CC2)cc1-c1ccc(C(=O)N[C@H](CO)c2cc(F)cc(Br)c2)c(F)c1",
    "metric": "IC50",
    "recorded-value": 8.59
  },
  {
    "molecule": "Nc1ncc(C(=O)N2CCOCC2)nc1-c1ccc(C(=O)N[C@H](CO)c2cc(F)cc(Br)c2)c(F)c1",
    "metric": "IC50",
    "recorded-value": 10.5
  },
  {
    "molecule": "Nc1ncc(N2CCOCC2)cc1-c1ccc(C(=O)N[C@H](CO)c2ccccc2)cc1",
    "metric": "IC50",
    "recorded-value": 7.38
  }
]

---

Biological target: activated ERK2 (Homo sapiens (Human), UniProt P28482)
Sequence (P28482 whole entry): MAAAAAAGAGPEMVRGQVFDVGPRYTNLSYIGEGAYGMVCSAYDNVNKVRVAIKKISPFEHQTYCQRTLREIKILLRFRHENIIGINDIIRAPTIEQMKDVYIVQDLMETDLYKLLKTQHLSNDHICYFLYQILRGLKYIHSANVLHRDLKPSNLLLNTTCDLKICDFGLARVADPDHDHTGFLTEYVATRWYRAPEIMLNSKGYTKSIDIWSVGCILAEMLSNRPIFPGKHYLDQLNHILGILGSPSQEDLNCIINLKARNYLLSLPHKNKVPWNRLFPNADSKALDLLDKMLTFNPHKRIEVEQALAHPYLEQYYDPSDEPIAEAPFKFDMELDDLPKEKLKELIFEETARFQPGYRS
Experiment: Activated ERK2 kinase assay, ERK2 New conditions (AlphaScreen, ERKtide phosphorylation)
Type: biochemical
Conditions: 0.25 nM ERK2, 200 nM ERKtide peptide, 35 μM ATP, 30 min preincubation
pIC50: −log10 of the molar value.
Attribute: pIC50
metric: pIC50

[
  {
    "molecule": "CCn1cc(-c2cnc(N)c(-c3ccc(C(=O)N[C@H](C)c4cc(F)cc(S(C)(=O)=O)c4)c(F)c3)c2)cn1",
    "metric": "pIC50",
    "recorded-value": 9.21
  },
  {
    "molecule": "Nc1ncc(C2CCOCC2)cc1-c1ccc(C(=O)NCc2cnccn2)c(F)c1",
    "metric": "pIC50",
    "recorded-value": 5.91
  },
  {
    "molecule": "Cc1oncc1-c1cnc(N)c(-c2ccc(C(=O)N[C@H](CO)c3cccc(F)c3)c(F)c2)c1",
    "metric": "pIC50",
    "recorded-value": 6.41
  },
  {
    "molecule": "C[C@@H]1CN(c2cnc(N)c(-c3ccc(C(=O)N[C@H](CO)c4ccccc4)cc3)c2)C[C@H](C)O1",
    "metric": "pIC50",
    "recorded-value": 6.63
  },
  {
    "molecule": "Cn1cncc1-c1cnc(N)c(-c2ccc(C(=O)N[C@H](CO)c3ccccc3)c(F)c2)c1",
    "metric": "pIC50",
    "recorded-value": 8.85
  },
  {
    "molecule": "Cc1nn(C)cc1-c1cnc(N)c(-c2ccc(C(=O)N[C@H](CO)c3cccc(S(C)(=O)=O)c3)c(F)c2)c1",
    "metric": "pIC50",
    "recorded-value": 9.53
  },
  {
    "molecule": "Cn1cc(-c2cnc(N)c(-c3ccc(C(=O)N[C@H](CO)c4ccccc4)c(F)c3)n2)cn1",
    "metric": "pIC50",
    "recorded-value": 8.72
  }
]

Recorded values, source patent US9242996B2.
